target: UniProtKB P00690; assay: Continuous α-amylase activity assay (starch hydrolysis) by ITC; format: biochemical; conditions: relative to control; 100 μM flavan-3-ol, 310 K, initial injection
Response field label takes t when (dQ/dt)max is strictly below 60% and f in all other cases.

{"COMPOUND": "Oc1cc(O)c2c(c1)O[C@H](c1ccc(O)c(O)c1)[C@H](O)[C@H]2c1c(O)cc(O)c2c1O[C@H](c1ccc(O)c(O)c1)[C@H](O)[C@H]2c1c(O)cc(O)c2c1O[C@H](c1ccc(O)c(O)c1)[C@H](O)C2", "ASSIGNED CATEGORY": "t"}

Below 60% on (dQ/dt)max? Entry Oc1cc(O)c2c(c1)O[C@H](c1ccc(O)c(O)c1)[C@H](O)[C@H]2c1c(O)cc(O)c2c1O[C@H](c1ccc(O)c(O)c1)[C@@H](O)C2 f

Please check: (dQ/dt)max for Oc1cc(O)c2c(c1)O[C@H](c1ccc(O)c(O)c1)[C@@H](O)C2 [CAT, (+)-Catechin] , strictly under 60% or not? f

For Oc1cc(O)c2c(c1)O[C@H](c1ccc(O)c(O)c1)[C@H](O)[C@H]2c1c(O)cc(O)c2c1O[C@H](c1ccc(O)c(O)c1)[C@H](O)C2 , is the recorded (dQ/dt)max below the cut-off of 60%? t

# check: (dQ/dt)max < 60% for Oc1cc(O)c2c(c1)O[C@H](c1ccc(O)c(O)c1)[C@H](O)C2 [EC, (−)-Epicatechin] f

----------
Target: porcine pancreatic α-amylase (Sus scrofa, UniProt P00690)
Sequence (P00690 16-511): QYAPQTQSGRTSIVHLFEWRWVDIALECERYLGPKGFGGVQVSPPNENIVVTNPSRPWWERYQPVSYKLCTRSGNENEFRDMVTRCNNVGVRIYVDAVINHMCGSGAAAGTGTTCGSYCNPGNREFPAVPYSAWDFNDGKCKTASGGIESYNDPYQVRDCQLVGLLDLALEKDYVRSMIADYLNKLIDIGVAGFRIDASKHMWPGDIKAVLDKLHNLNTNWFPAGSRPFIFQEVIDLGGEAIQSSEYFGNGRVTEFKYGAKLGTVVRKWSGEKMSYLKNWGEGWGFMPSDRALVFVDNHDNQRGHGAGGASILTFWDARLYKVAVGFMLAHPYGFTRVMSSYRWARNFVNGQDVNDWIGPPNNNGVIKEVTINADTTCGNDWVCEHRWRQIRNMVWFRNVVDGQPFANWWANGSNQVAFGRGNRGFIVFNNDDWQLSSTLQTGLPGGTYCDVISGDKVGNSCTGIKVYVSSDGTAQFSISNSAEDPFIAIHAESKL
Test: Continuous α-amylase activity assay (starch hydrolysis) by ITC
Assay type: biochemical
Details: 100 µM flavan-3-ol, inj. 2
# Lookup of reported vmax keyed by entry

Known results for compounds:
{"COMPOUND": "Oc1cc(O)c2c(c1)O[C@H](c1ccc(O)c(O)c1)[C@@H](O)C2 [CAT, (+)-Catechin]", "MEASURE": "vmax", "MEASURED VALUE": "78±5%"}
{"COMPOUND": "Oc1cc(O)c2c(c1)O[C@H](c1ccc(O)c(O)c1)[C@H](O)C2 [EC, (−)-Epicatechin]", "MEASURE": "vmax", "MEASURED VALUE": "77±5%"}
{"COMPOUND": "Oc1cc(O)c2c(c1)O[C@H](c1ccc(O)c(O)c1)[C@H](O)[C@H]2c1c(O)cc(O)c2c1O[C@H](c1ccc(O)c(O)c1)[C@@H](O)C2 [PC B1, procyanidin B1]", "MEASURE": "vmax", "MEASURED VALUE": "65±8%"}

The compound listed as Oc1cc(O)c2c(c1)O[C@H](c1ccc(O)c(O)c1)[C@H](O)[C@H]2c1c(O)cc(O)c2c1O[C@H](c1ccc(O)c(O)c1)[C@H](O)[C@H]2c1c(O)cc(O)c2c1O[C@H](c1ccc(O)c(O)c1)[C@H](O)C2 [PC C1, procyanidin C1] shows vmax equal to 50±5%

Record Oc1cc(O)c2c(c1)O[C@H](c1ccc(O)c(O)c1)[C@H](O)[C@H]2c1c(O)cc(O)c2c1O[C@H](c1ccc(O)c(O)c1)[C@H](O)C2 [PC B2, procyanidin B2] . Reported vmax: 62±6%
